Entry source: patent US7265131B2

biological target: LXR α (Homo sapiens, UniProt Q13133); construct: Co-transfection expression plasmids, comprising full-length LXR α (pCMX-hLXR α); expressed in transfected cells; host or cells: CV-1 African Green Monkey kidney cells, transient transfection; test: LXR/LXRE co-transfection assay (luciferase reporter, CV-1 cells); format: cell-based; details: CV-1, average percent efficacy, relative to control N-(3-((4-fluorophenyl)-(naphthalene-2-sulfonyl)amino)propyl)-2,2-dimethylpropionamide, read-out: % Eff(a)
Sequence (Q13133 whole entry): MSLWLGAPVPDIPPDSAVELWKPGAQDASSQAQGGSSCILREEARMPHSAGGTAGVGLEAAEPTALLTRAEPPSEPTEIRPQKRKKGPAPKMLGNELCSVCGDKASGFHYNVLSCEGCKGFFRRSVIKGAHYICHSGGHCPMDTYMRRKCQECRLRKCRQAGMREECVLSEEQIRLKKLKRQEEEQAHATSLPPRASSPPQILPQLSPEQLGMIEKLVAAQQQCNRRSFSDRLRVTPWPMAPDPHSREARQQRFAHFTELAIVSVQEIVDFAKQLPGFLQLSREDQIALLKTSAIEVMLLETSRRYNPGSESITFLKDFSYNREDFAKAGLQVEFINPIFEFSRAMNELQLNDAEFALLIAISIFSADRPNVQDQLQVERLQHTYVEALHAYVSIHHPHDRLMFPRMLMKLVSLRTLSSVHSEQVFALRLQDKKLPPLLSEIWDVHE
Sequence (P19793 whole entry partner): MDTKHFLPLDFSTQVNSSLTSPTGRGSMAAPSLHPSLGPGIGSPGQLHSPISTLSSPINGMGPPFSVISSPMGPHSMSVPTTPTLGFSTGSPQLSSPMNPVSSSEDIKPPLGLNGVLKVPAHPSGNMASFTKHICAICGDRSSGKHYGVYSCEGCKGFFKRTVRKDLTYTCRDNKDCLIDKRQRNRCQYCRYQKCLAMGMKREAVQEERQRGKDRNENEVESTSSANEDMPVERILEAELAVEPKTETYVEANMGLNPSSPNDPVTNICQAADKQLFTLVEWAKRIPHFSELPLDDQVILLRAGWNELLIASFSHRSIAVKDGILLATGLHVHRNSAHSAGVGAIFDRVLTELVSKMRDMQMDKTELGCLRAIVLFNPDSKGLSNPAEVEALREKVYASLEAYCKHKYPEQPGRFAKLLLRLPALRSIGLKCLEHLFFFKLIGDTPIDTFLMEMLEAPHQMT
Kindly state Emax for each of the entries shown.

Q. Tell me measured Emax for Cc1ccc(Cn2c(C#CC(C)(C)O)cc3ccccc3c2=O)c(C)c1 please.
A. 40 to 90%

Q. Tell me measured Emax for O=c1c2c(Cl)cccc2cc(-c2cc(-c3cc(C(F)(F)F)cc(C(F)(F)F)c3)co2)n1Cc1ccc(F)cc1F please.
A. 40 to 90%

Q. Tell me measured Emax for O=c1c2c(Cl)cccc2cc(-c2ccc(Oc3ccccc3)cc2)n1Cc1cccs1 please.
A. 40 to 90%

Q. Tell me measured Emax for O=c1c2c(Cl)cccc2cc(-c2ccc(Oc3ccccc3)cc2)n1CC1CCCCC1 please.
A. 40 to 90%

Q. Tell me measured Emax for O=c1c2c(Cl)cccc2cc(-c2ccc(Oc3ccccc3)cc2)n1Cc1ccc(F)cc1F please.
A. > 90%
